assay: Drug metabolism in human HepG2 cells lysates assessed as esterase-mediated drug hydrolysis at 200 uM incubated up to 24 hrs by HPLC analysis; format: ADME, subcellular, Lysate; details: hepg2, 24 h

smi | Drug metabolism
O=C(CCC(=O)OC[C@@H](NC(=O)C(Cl)Cl)[C@H](O)c1ccc([N+](=O)[O-])cc1)NCC(=O)N[C@H](CO)C(=O)O | Metabolite_Detected
NCCCC[C@H](NC(=O)[C@H](CCCCN)NC(=O)CCC(=O)OC[C@@H](NC(=O)C(Cl)Cl)[C@H](O)c1ccc([N+](=O)[O-])cc1)C(=O)O | Metabolite_Detected
NCCCC[C@@H](NC(=O)[C@@H](CCCCN)NC(=O)CCC(=O)OC[C@@H](NC(=O)C(Cl)Cl)[C@H](O)c1ccc([N+](=O)[O-])cc1)C(=O)O | Metabolite_Detected
O=C(O)CNC(=O)[C@@H](CO)NC(=O)CCC(=O)OC[C@@H](NC(=O)C(Cl)Cl)[C@H](O)c1ccc([N+](=O)[O-])cc1 | Metabolite_Detected
